From: PubChem BioAssay AID1159580

- test-protocol: chemical genetic growth profiling, strain panel (AID 1159580);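 note: tested at 20 µM; growth read once vehicle control cultures reached saturation at 30 °C; lower values mean less growth of the strain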
- test-settings: S. cerevisiae deletion strains, growth OD, locus YLR258W, strain gsy2
Among all 5,500 compounds or so, about 2,000 (36%) were called active. Roughly 18% stayed inconclusive and do not appear here. Cut-off read from the data, not from the text of the source: active = normalized growth mostly below about 0.91 (no sharp cut-off); inconclusive = no clear call, values can overlap the other calls; inactive = mostly above about 0.92. Some of the results follow.
Can you answer with just one of these options? YES for active, NO for inactive

Worked examples, 2 compounds total:
1) CC(C)[N+](C)(CCC(C(N)=O)(c1ccccc1)c1ccccc1)C(C)C; NO
2) CN[C@@H]1C(O)[C@@H](O[C@@H]2[C@@H](O)[C@H](O[C@H]3OC(CN)=CC[C@H]3N)[C@@H](N)C[C@H]2N)OC[C@]1(C)O (stereo partly specified); NO

Q: For this compound, state the assay outcome: CC(C)c1c(O)ccc2c1CCC1C(C)(C)CCC[C@]21C (stereo partly specified)
Ans: YES

Q: For this compound, state the assay outcome: "COc1cccc2c(C)cc(=O)[nH]c12"
Ans: NO

Q: For this compound, state the assay outcome: "CCOCN(C(=O)CCl)c1c(C)cccc1CC"
Ans: NO
